Each recorded value in this set is attributed to patent US20210230266A1.

tgt: T1, Human IL-11 (human, UniProt P20809 22-199)
T1 construct: Recombinant human IL-11 (GenScript Cat. No. Z03108-1) or IL-11 secreted by human cells; the mature form is said to have 178 residues; also called recombinant human IL-11; endogenously produced IL-11
T1 sequence: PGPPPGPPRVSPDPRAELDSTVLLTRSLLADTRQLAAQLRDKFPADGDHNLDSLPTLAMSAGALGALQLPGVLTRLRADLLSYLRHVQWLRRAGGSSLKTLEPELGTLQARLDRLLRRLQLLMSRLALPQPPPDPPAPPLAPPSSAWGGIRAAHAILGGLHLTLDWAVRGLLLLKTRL
testDetails: ELISA
testReadout: hIL11 - average signal
The reply should be a number, written without any unit.

YU100-A11 (antibody) EVQLQQSGGGVVQPGRSLRLSCAASGFTFSSYGMHWVRQAPGKGLEWVAVISYDGSNKYYADSVKGRFTISRDNSKNTLYLQMNSLRAEDTAVYYCAKIGATDPLDYWGQGTLVTVSSGSASAPKLEEGEFSEARVQSALTQPRSVSGSPGQSVTISCTGTSSDVGGYNYVSWYQQHPGKAPKLMIYDVSKRPSGVPDRFSGSKSGNTASLTISGLQAEDEADYYCCSYAGSYTWVFGGGTKLTVL ... 0.333

Please look at the following binder next.
Req: For the binder shown here, YU100-G08 (antibody, human IgG1, V domains shown, Light chain shuffled human antibody; Only the variable domains are tied to the clone) VH: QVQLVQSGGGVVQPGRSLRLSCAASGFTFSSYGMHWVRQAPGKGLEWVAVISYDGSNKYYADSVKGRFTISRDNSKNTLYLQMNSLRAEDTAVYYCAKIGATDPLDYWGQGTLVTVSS VL: QSALTQPRSVSGSPGQSVTLSCTGTSSDVGGYNYVSWYQHYPGKAPKLMIFDVNERSSGVPDRFSGSKSGNTASLTISGLQAEDEADYYCCSYAGRYTWMFGGGTKVTVLG , give the reported hIL11 - average signal.
Resp: 0.153
